System name: Steryl-sulfatase (Homo sapiens, UniProt P08842)
Sequence (P08842 whole entry): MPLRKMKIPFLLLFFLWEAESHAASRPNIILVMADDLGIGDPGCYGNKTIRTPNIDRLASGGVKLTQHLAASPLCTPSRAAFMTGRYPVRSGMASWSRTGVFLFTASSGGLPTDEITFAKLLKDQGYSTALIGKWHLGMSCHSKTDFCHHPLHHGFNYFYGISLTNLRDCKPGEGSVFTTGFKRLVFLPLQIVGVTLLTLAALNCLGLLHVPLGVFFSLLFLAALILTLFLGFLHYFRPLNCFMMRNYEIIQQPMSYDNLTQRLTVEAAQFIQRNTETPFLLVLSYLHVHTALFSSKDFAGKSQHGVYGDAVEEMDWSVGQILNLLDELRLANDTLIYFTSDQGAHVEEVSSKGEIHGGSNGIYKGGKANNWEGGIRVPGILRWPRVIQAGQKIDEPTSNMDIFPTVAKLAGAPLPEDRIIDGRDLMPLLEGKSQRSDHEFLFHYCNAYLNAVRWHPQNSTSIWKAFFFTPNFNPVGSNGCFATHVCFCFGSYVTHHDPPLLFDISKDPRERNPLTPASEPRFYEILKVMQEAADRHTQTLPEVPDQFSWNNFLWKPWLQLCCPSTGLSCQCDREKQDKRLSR
Assay procedure: Inhibitory constant against human Steroid sulfatase
Recorded endpoint: Ki
Dear colleague, please send the value followed by its unit.

Exam item: What measured Ki is associated with "CC(C)(C)OC(=O)N1CCC(C(=O)NS(=O)(=O)c2c(Cl)sc(Cl)c2Br)CC1" on Steryl-sulfatase (Homo sapiens, UniProt P08842)?
Marked response: 12 nM
